- Test system: MOLM-13 cells
- method-summary: Cell proliferation assay (alamarBlue), MOLM-13
- Assay type: cell-based
- experimental-conditions: Homo sapiens, Leukaemia, 96 hours, inhibition of cell proliferation
- Procedure: In accordance with the invention, the ability of the substances to inhibit cell proliferation was determined Cell viability was determined by means of the alamarBlue® reagent (Invitrogen) in a Victor X3 Multilabel Reader (Perkin Elmer). […] The MDA-MB-231 cells (DSMZ, ACC 732) were sown at a concentration of 4000 cells/well in 100 μl of growth medium (DMEM/Ham's F12 medium, 10% FCS) on 96-well microtitre plates. After overnight incubation at 37° C., the fluorescence values (CI values) were determined. […]
I'd be grateful if you could share measured IC50 for these entries.
Answers are plain numbers, in nM.

Some solved cases for reference:
[[record]]
item_smiles = "Cc1c2c(cn1C)-n1c(C)nnc1[C@H](CC(=O)N1CCC(=O)C1)N=C2c1ccc(Cl)cc1"
u = "nM"
reported_measurement = 480

[[record]]
item_smiles = "Cc1c2c(cn1C)-n1c(C)nnc1[C@H](CC(=O)N1CCOCC1)N=C2c1ccccc1"
u = "nM"
reported_measurement = 1240


Record IC50 per entry; entries follow.
1. CCc1noc(C[C@@H]2N=C(c3ccc(Cl)cc3)c3c(cn(C)c3C)-n3c(C)nnc32)n1
2. Cc1c2c(cn1C)-n1c(C)nnc1[C@H](CC(=O)N1CCOCC1)N=C2c1ccc(Cl)cc1

Result:
70
520
